- target_or_test_system: human TGR5 receptor (Homo sapiens, UniProt Q8TDU6)
- experiment: Human TGR5 cAMP production assay
- test_settings: human TGR5, luminescent cAMP assay; coded A-D; read-out: Human TGR5 Lum. cAMP Activity (EC50)
- Protocol: Human TGR5 cAMP Production Assay We evaluated the Compounds of the present invention for their ability to induce cAMP production using CHO-K1 cells overexpressing the human TGR5 receptor. […] Test compounds were serially diluted (half-log dilutions) in DMSO and then further diluted 1:50 in PBS, 10 mM HEPES buffer. […] Luminescent signal was then detected using the Viewlux instrument (Perkin-Elmer, Waltham, Mass.). […]
pEC50: −log10 of the molar value.
readout_kind: pEC50

In the examples that follow, each entry is paired with its recorded pEC50.
> print(dat)
                                   compound        result
1  CC(C)(NS(=O)(=O)c1cccc(C(F)(F)F)c1)c1cccc(-c2ccnc3ccccc23)c1  4.52 to 6.00
2  CCc1cnccc1-c1cccc([C@H](C)N(CCCCN)S(=O)(=O)c2cccc(Cl)c2C)c1 [Compound 24AC]  6.00 to 7.00
3  CNC(=O)C[C@H](NS(=O)(=O)c1ccccc1C(F)(F)F)c1cccc(-c2ccncc2C)c1  6.00 to 7.00
4  Cc1cnccc1-c1cccc(C2CCCCN2S(=O)(=O)c2ccccc2C(F)(F)F)c1 (centres unmarked)        > 7.00

# context switch: different compound, same pEC50
Find the recorded pEC50 belonging to Cc1cnccc1-c1cccc([C@H](CC(=O)O)NS(=O)(=O)c2ccccc2C(F)(F)F)c1 and report it. 4.52 to 6.00

###

Recorded EC50 by entry
- target_or_test_system: human TGR5 receptor (Homo sapiens)
- experiment: Human TGR5 cAMP production assay
- test_settings: human TGR5, luminescent cAMP assay; coded A-D; read-out: Human TGR5 Lum. cAMP Activity (EC50)

Some entries whose results are on file:
> print(dat)
                                  structure  readout.kind            result
1  CC(C)(NS(=O)(=O)c1cccc(C(F)(F)F)c1)c1cccc(-c2ccncc2CO)c1          EC50          < 100 nM
2  COc1cnccc1-c1cccc(CNS(=O)(=O)c2cccc(C(F)(F)F)c2)n1          EC50  1000 to 30000 nM

Okay, now this molecule:
Lookup: EC50 / human TGR5 receptor (Homo sapiens) / Cc1cccc(S(=O)(=O)NCc2cccc(-c3ccncc3)c2)c1 1000 to 30000 nM

###

- target_or_test_system: mouse TGR5 receptor (Mus musculus, UniProt Q80SS6)
- Construct: expressed in transfected cells; host or cells: HEK293-EBNA (293 c18, ATCC CRL10852), Hygromycin B selection
- Sequence (Q80SS6 1-329): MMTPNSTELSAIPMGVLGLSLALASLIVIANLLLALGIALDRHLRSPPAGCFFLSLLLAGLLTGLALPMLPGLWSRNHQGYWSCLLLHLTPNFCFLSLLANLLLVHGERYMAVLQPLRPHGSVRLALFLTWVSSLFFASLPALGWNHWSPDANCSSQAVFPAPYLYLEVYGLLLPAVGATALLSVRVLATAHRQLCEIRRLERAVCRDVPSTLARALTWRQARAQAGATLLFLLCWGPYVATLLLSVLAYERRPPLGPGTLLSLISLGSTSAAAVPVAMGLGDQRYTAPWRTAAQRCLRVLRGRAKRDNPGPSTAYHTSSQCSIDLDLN
- experiment: Mouse TGR5 cAMP production assay (HTRF, Cisbio cAMP HiRange)
- Assay type: cell-based
- test_settings: HEK293-EBNA cells overexpressing mouse TGR5, HTRF cAMP HiRange; coded A-D
Recorded measurements of EC50, one per entry

Guide cases for EC50, answers given:
> print(dat)
                                    compound            result
 1  CC(C)(NS(=O)(=O)c1ccccc1C(F)(F)F)c1cccc(-c2ccc(=O)[nH]c2)c1  1000 to 30000 nM
 2  Cc1cnccc1-c1cccc([C@@H](C)N(CCCC(=O)NCCS(=O)(=O)O)S(=O)(=O)c2cccc(Cl)c2C)c1 [Compound 21AP]  1000 to 30000 nM
 3  Cc1ccc(S(=O)(=O)NC(CCCCC#N)c2cccc(-c3ccncc3C)c2)nc1 (stereo not drawn) [Compound 35B]  1000 to 30000 nM
 4  CCc1cnccc1-c1cccc(C2CN(C(=O)CS(=O)(=O)O)CCN2S(=O)(=O)c2cccc(Cl)c2C)c1 (stereo not drawn)          < 100 nM
 5  COc1cnccc1-c1cc(CNS(=O)(=O)c2cccc(C(F)(F)F)c2)ccn1  1000 to 30000 nM
 6  CCc1cnccc1-c1cccc([C@H](C)N(CCCC(=O)NCS(=O)(=O)O)S(=O)(=O)c2ccccc2C(F)(F)F)c1 [Compound 20BE]          < 100 nM
 7  CCc1cnccc1-c1cccc([C@H](C)NS(=O)(=O)c2ccccc2C(F)(F)F)c1          < 100 nM
 8  COc1cnccc1-c1cccc(C2CN(C(=O)CS(=O)(=O)O)CCN2S(=O)(=O)c2cccc(Cl)c2C)c1 (stereo not drawn) [Compound 49AF]          < 100 nM
 9  CCc1cnccc1-c1cccc(C2CN(C(=O)COCC(=O)O)CCN2S(=O)(=O)c2cccc(Cl)c2C)c1 (stereo not drawn) [Compound 46AB]          < 100 nM
10  Cc1cnccc1-c1cccc([C@H](C)N(CCCC(N)=O)S(=O)(=O)c2cccc(Cl)c2C)c1 [Compound 20AY]     100 to 999 nM

Using the record for COc1cnccc1-c1cccc(C(C)(C)NS(=O)(=O)c2cccc(C(F)(F)F)c2C)c1 , report its EC50. 100 to 999 nM

Same for Cc1cnccc1-c1cccc([C@H](C)N(CCCC(=O)NCCS(=O)(=O)O)S(=O)(=O)c2ccccc2C)c1 [Compound 20AQ] 100 to 999 nM

###

- experiment: Pharmacokinetic profile in mice
- Assay type: in vivo
- test_settings: mouse; fasted male Hilltop mice, 10 mg/kg oral gavage, plasma, mean of three mice
readout_kind: Cmax (ng/mL)

[a] CCc1cnccc1-c1cccc(C2CN(C(=O)CS(=O)(=O)O)CCN2S(=O)(=O)c2cccc(Cl)c2C)c1 (stereo not drawn) [Compound 49]
[b] Cc1cnccc1-c1cccc(C(C)(C)N(CCCC(=O)NCCS(=O)(=O)O)S(=O)(=O)c2ccccc2C(F)(F)F)c1 [Compound 20AA]
[c] Cc1cnccc1-c1cccc([C@H](C)N(CCCCNC(=O)NCS(=O)(=O)O)S(=O)(=O)c2ccccc2C(F)(F)F)c1 [Compound 28AC]
Ascending by Cmax, please: list the molecules accordingly. Submit the labels in the order that the ranking request calls for. c, a, b

###

- target_or_test_system: human TGR5 receptor (Homo sapiens, UniProt Q8TDU6)
- Sequence (Q8TDU6 1-330): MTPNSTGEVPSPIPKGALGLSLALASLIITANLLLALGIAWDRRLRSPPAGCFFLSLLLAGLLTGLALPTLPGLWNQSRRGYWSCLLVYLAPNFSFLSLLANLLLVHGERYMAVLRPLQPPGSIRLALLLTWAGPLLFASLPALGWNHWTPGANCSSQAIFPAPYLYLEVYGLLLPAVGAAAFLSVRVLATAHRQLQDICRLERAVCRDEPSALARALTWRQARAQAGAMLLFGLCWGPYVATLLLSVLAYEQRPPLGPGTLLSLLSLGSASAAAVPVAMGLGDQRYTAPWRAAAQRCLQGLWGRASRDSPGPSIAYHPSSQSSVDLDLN
- experiment: Human TGR5 cAMP production assay
- test_settings: human TGR5, luminescent cAMP assay; coded A-D; read-out: Human TGR5 Lum. cAMP Activity (EC50)
readout_kind: EC50

> print(dat)
                                   molecule            result
1  Cc1noc(C)c1-c1cccc(CNS(=O)(=O)c2ccc(F)c(C(F)(F)F)c2)c1  1000 to 30000 nM
2  CC(C)(NS(=O)(=O)c1ccccc1C(F)(F)F)c1cccc(-c2cnc3nccn3c2)c1  1000 to 30000 nM
3  CCc1cnccc1-c1cccc(C2CN(C(=O)CCC(=O)NCCS(=O)(=O)O)CCN2S(=O)(=O)c2cccc(Cl)c2C)c1 (centres unmarked) [Compound 53AB]     100 to 999 nM
4  Cc1c(Cl)cccc1S(=O)(=O)N[C@@H](C)c1cccc(-n2ccncc2=O)c1     100 to 999 nM

What does the data say about its EC50? Entry: Cc1cnccc1-c1cccc(C(C)(C)N(CCCN)S(=O)(=O)c2cccc(Cl)c2C)c1 < 100 nM

Moving on to CC(C)(NS(=O)(=O)c1ccccc1C(F)(F)F)c1cccc(-c2ccncc2CO)c1 < 100 nM

What do you have for C[C@H](NS(=O)(=O)c1cccc(C(F)(F)F)c1)c1cccc(-c2ccncc2)c1 ? 100 to 999 nM

Input Cc1cnccc1-c1cccc([C@H](CC(=O)N(C)C)NS(=O)(=O)c2ccccc2C(F)(F)F)c1 100 to 999 nM

Also check CC(C)(NS(=O)(=O)c1ccccc1C(F)(F)F)c1cccc(-c2ccc(=O)[nH]c2)c1 100 to 999 nM

Also check Cc1cnccc1-c1cccc(C(C)N(CCCNc2c(NCCC(=O)O)c(=O)c2=O)S(=O)(=O)c2cccc(Cl)c2C)c1 (centres unmarked) [Compound 32AB] 100 to 999 nM

Thanks! And Cc1cnccc1-c1cccc([C@H](C)N(CCCCC(=O)NCCOCCNS(=O)(=O)CC(=O)O)S(=O)(=O)c2cccc(Cl)c2C)c1 [Compound 26AD] ? < 100 nM

Another molecule to check: CC[C@H](NS(=O)(=O)c1ccccc1C(F)(F)F)c1cccc(-c2ccncc2C)c1 < 100 nM

// next record Cc1cnccc1-c1cccc([C@H](CCCC#N)NS(=O)(=O)c2cccc(Cl)c2C)c1 < 100 nM

Now try O=S(=O)(NCc1cccc(-c2ccncc2)c1)c1cccc(C(F)(F)F)c1 . 100 to 999 nM
